Data provenance is patent US20200062828A1.

Recorded Kd by entry
# study.system: T1, noro antigen (recombinant of the p-domain protein of the GII/4 norovirus (NSW-2012)) (GII/4 norovirus (NSW-2012), UniProt P54635 1-539)
# T1 construct: Viral capsid protein antigen; also called antigen of the norovirus; recombinant p-domain protein
# T1 chain: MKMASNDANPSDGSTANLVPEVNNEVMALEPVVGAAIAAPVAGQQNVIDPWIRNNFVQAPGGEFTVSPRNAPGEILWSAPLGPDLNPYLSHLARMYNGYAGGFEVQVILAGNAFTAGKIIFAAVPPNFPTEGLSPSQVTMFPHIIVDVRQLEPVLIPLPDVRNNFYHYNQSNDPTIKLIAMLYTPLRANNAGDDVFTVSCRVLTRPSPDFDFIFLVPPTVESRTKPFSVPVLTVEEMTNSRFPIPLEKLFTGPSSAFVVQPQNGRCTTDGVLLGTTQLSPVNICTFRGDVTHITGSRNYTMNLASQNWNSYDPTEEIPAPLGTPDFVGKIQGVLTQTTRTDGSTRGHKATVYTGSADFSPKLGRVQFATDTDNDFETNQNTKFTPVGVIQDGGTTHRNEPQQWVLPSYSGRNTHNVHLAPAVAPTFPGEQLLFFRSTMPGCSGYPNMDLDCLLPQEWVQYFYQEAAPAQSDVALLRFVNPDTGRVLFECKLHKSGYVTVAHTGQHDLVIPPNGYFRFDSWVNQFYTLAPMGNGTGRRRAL
# assay.comment: SPR (T200), VHH immobilized, noro antigen as analyte added serially
All answers are understood in nM, so give the number only.

// known answers, use as guide
>>> recorded_measurement("VHH antibody including the amino acid sequence represented by SEQ ID NO: 43 (VHH, also called anti-noro antibody; not shown: C-terminal 3xFlag tag and His tag from the modified pET22b(+) vector) VHH: QLQLVESGGGLVQPGGSLRLSCAASGFTLDYYAIGWFRQAPGNEREFVAAISWNGGSTYYADSVKGRFTISRDNAKETVYLQMNSLKPEDTGVYYCNYRPQFGLGYNYWGQGTQVTVSS")
10.3
>>> recorded_measurement("VHH antibody including the amino acid sequence represented by SEQ ID NO: 41 (VHH, also called anti-noro antibody; not shown: C-terminal 3xFlag tag and His tag from the modified pET22b(+) vector) VHH: EVQLVESGGGLVQAGGSLRLSCAVSGRTSSRYVMGWVRQAPGKEREFLAAISWSAGYTFYRDSVKGRFTISRDNAKNTVYLQMNSLKPEDTAVYYCNADENGLGRKRGFGSWGQGTQVTVSS")
4.98
>>> recorded_measurement("VHH antibody including the amino acid sequence represented by SEQ ID NO: 39 (VHH, also called Monovalent 65; not shown: C-terminal 3xFlag tag and His tag from the modified pET22b(+) vector) VHH: QLQLVESGGGLVQAGGSLRLSCVASGFPFASSAMAWFRQAPGKEREFVASISYRGITTYYAQPVKGRFTMSRDNAKNTVYLQMNSLKPEDTAVYYCYAKSIWGNAYWGQGTQVTVSP")
15.9
>>> recorded_measurement("VHH antibody including the amino acid sequence represented by SEQ ID NO: 42 (VHH, also called anti-noro antibody; not shown: C-terminal 3xFlag tag and His tag from the modified pET22b(+) vector) VHH: ELQLVESGGGAVHTGGSLRLSCAVSGRTDIRYAMGWFRQAPGREREFVAAISWNGDDTFYADSVKGRFTISRDNAKNAVSLQMDSLRPEDTAVYYCNARNSYAAFARAYWGQGTQVTVSS")
13.1
>>> recorded_measurement("VHH antibody including the amino acid sequence represented by SEQ ID NO: 38 (VHH, Alpaca VHH expressed in E. coli; also called monomer antibody; not shown: C-terminal 3xFlag tag and His tag from the modified pET22b(+) vector) VHH: QVQLVESGGGVVQTGGSLRLSCAASGSTFSIGAMGWYRQAPGKQRELVATVNRASRTIYADSVRGRFTISRDNAKNLVYLQMNNLKPEDTAVYYCNVIATSASGRGVTSTSWGQGSQVTVSS")
4.15

Tell me measured Kd for VHH antibody including the amino acid sequence represented by SEQ ID NO: 40 (VHH, not shown: C-terminal 3xFlag tag and His tag from the modified pET22b(+) vector) VHH: QLQLVEPGGGVVQPGGSLRLSCLASGSDFSLGAMGWYRQAPGKQRELVAIINRASWTRYADSVKGRFTISRDNSKNLVFLQMNNLKPDDTAVYYCNAIATSASGRGVTSTSWGQGSQVTVSS please.
9.57
